This collection of values is drawn from the supplement of paper PMC10307832.

test system: NCI-H838; experiment: relative viability (nuclei count vs DMSO), 5 days (fraction); higher = more cells survive; settings: first compound 0.253 µM
Listed next: entries and their corresponding relative viability.
// return just the number, without any unit appended

Compound | Numeric result
COc1nc(C)cnc1NS(=O)(=O)c1cccnc1-c1ccc(-c2nnco2)cc1 [Zibotentan] + CC1(C)CCC(c2ccc(Cl)cc2)=C(CN2CCN(c3ccc(C(=O)NS(=O)(=O)c4ccc(N[C@H](CCN5CCOCC5)CSc5ccccc5)c(S(=O)(=O)C(F)(F)F)c4)cc3)CC2)C1 [Navitoclax] (partner 0.5 µM) | 1.1

Complete the entry with relative viability for COc1nc(C)cnc1NS(=O)(=O)c1cccnc1-c1ccc(-c2nnco2)cc1 [Zibotentan] + Nc1ncn([C@H]2C[C@H](O)[C@@H](CO)O2)c(=O)n1 [Decitabine] (partner 2 µM) 0.414

---

Listed next: entries and their corresponding relative viability.
tested on: LK-2; test: relative viability (nuclei count vs DMSO), 5 days (fraction); higher = more cells survive; settings: first compound 0.8 µM

Look over these answered cases.
Compound | relative viability
O=c1cc(-c2cccc3c2Sc2ccccc2S3)oc(N2CCOCC2)c1 + CS(=O)(=O)N1CCN(Cc2cc3nc(-c4cccc5[nH]ncc45)nc(N4CCOCC4)c3s2)CC1 [Pictilisib] (partner 1 µM) | 0.708
COc1nc(C)cnc1NS(=O)(=O)c1cccnc1-c1ccc(-c2nnco2)cc1 [Zibotentan] + Cc1nc(NC(=O)N2CCC[C@H]2C(N)=O)sc1-c1ccnc(C(C)(C)C(F)(F)F)c1 [Alpelisib] (partner 2 µM) | 0.889
COc1nc(C)cnc1NS(=O)(=O)c1cccnc1-c1ccc(-c2nnco2)cc1 [Zibotentan] + CC1(C)CCC(c2ccc(Cl)cc2)=C(CN2CCN(c3ccc(C(=O)NS(=O)(=O)c4ccc(N[C@H](CCN5CCOCC5)CSc5ccccc5)c(S(=O)(=O)C(F)(F)F)c4)cc3)CC2)C1 [Navitoclax] (partner 0.5 µM) | 0.806

Please look at the following compound next.
Complete the entry with relative viability for COc1nc(C)cnc1NS(=O)(=O)c1cccnc1-c1ccc(-c2nnco2)cc1 [Zibotentan] + CC(=O)Nc1cccc(-n2c(=O)n(C3CC3)c(=O)c3c(Nc4ccc(I)cc4F)n(C)c(=O)c(C)c32)c1 [Trametinib] (partner 0.02 µM) 0.83

---

system: ABC-1; test: relative viability (nuclei count vs DMSO), 5 days (fraction); higher = more cells survive; conditions: first compound 0.08 µM
Quantity kind: relative viability

Look over these answered cases.
Compound | Result
COc1nc(C)cnc1NS(=O)(=O)c1cccnc1-c1ccc(-c2nnco2)cc1 [Zibotentan] + CC(C)C[C@H](NC(=O)[C@H](Cc1ccccc1)NC(=O)c1cnccn1)B(O)O [Bortezomib] (partner 0.002 µM) | 0.348
COc1nc(C)cnc1NS(=O)(=O)c1cccnc1-c1ccc(-c2nnco2)cc1 [Zibotentan] + CS(=O)(=O)CCNCc1ccc(-c2ccc3ncnc(Nc4ccc(OCc5cccc(F)c5)c(Cl)c4)c3c2)o1 [Lapatinib] (partner 2 µM) | 1.28
O=c1cc(-c2cccc3c2Sc2ccccc2S3)oc(N2CCOCC2)c1 + COc1cccc2cc(-c3nc([C@H]4CC[C@H](C(=O)O)CC4)n4ncnc(N)c34)[nH]c12 [OSI-027] (partner 0.5 µM) | 0.501
O=c1cc(-c2cccc3c2Sc2ccccc2S3)oc(N2CCOCC2)c1 + NC(=O)Nc1cc(-c2cccc(F)c2)sc1C(=O)N[C@H]1CCCNC1 [AZD7762] (partner 0.2 µM) | 0.738

Complete the entry with relative viability for COc1nc(C)cnc1NS(=O)(=O)c1cccnc1-c1ccc(-c2nnco2)cc1 [Zibotentan] + Cc1nc(NC(=O)N2CCC[C@H]2C(N)=O)sc1-c1ccnc(C(C)(C)C(F)(F)F)c1 [Alpelisib] (partner 2 µM) 1.1
